The reported numbers originate from patent US20050209157A1.

- EXPERIMENT NOTES: in vitro
- Type: cell-based, human
- CONDITIONS USED: human, human red blood cells, pH 7, hemolytic assay, concentration at 50% hemolysis, 1 hour at 37° C.; read-out: LD50
No end group written: not given here.
READOUT TYPE: log10 of HC50 at 1 h (log10 of the value in µg/mL)
Heads up: the numbers are on a log10 scale; they represent HC50 at 1 h in µg/mL.

# example entries with known answers
{"SUBSTANCE": "FAKLLAKLAKKGL-NH2 [P152]", "log10 of HC50 at 1 h": 2.94}
{"SUBSTANCE": "FAKLWAKLAFGKGIGKVGKKLL-NH2 [P135]", "log10 of HC50 at 1 h": 2.95}
{"SUBSTANCE": "VALALKALKKLAKKLKKLAKKAL-NH2 [P509]", "log10 of HC50 at 1 h": 1.60}
{"SUBSTANCE": "FALALKLAKKAL-NH2 [P167, FALALKLAKKAL-NH2]", "log10 of HC50 at 1 h": 2.30}

Need log10 of HC50 at 1 h, item FAKKFAKKFKKFAKKFAKFAFAF-NH2 [P301, reference compound]
1.00

Need log10 of HC50 at 1 h, item FAKKLAKKLAKLL-NH2 [P75]
2.88
